- system.name: CDK2/Cyclin E1 complex (Homo sapiens)
- test.description: CDK2 inhibition assay (Caliper/LabChip EZ Reader kinase assay)
- Assay type: biochemical
- conditions: Table 1; CDK2/Cyclin E1 0.5 nM, ATP 2 mM, 35 min at 27° C.; listed as 113
recorded.endpoint: IC50

> print(dat)
                                   compound  recorded.endpoint  experimental.value
1  Cn1ccc(-c2ccc3c(-c4nc(N[C@H]5CCCNC5)ncc4C(F)(F)F)c[nH]c3c2)n1 [Compound 303]               IC50              > 5 µM

###

- system.name: CDK2/Cyclin E1 complex (Homo sapiens, UniProt P24941)
- test.description: CDK2 inhibition assay (Caliper/LabChip EZ Reader kinase assay)
- Assay type: biochemical
- conditions: Table 1; CDK2/Cyclin E1 0.5 nM, ATP 2 mM, 35 min at 27° C.
pIC50: −log10 of the molar value.
recorded.endpoint: pIC50

> print(dat)
                                   molecule  experimental.value
1  Cn1cc(-c2nc(NC3CCCNC3)ncc2C(F)(F)F)c2ccc(C#N)nc21 (stereo not shown)              < 5.30
2  CC[C@@H]1CC[C@H](Nc2ncc(C(F)(F)F)c(-c3c[nH]c4ccccc34)n2)CN1        5.30 to 6.70
3  FC(F)(F)c1cnc(N[C@H]2CCCNC2)nc1-c1c[nH]c2c(-c3ccnnc3)cccc12        6.70 to 7.70
4  N#Cc1ccc2c(-c3nc(N[C@@H]4CNCC[C@H]4O)ncc3C(F)(F)F)c[nH]c2c1              < 5.30
